# System Tested: SIK2 (human)
# Run Description: KINOMEscan competition binding
# Recorded Conditions: compound 10.0 µM
Under this convention, Yes denotes kinase still bound, per cent of control strictly below 50% and No denotes kinase still bound, per cent of control at or above 50%.

Known results for compounds:
• C=CC(=O)Nc1cccc(Nc2nc(N[C@H]3CC[C@H](N(C)C)CC3)nc3c2ncn3C(C)C)c1 = No
• CCC(=O)N1CCN(c2ccc(-n3c(=O)ccc4cnc5ccc(-c6cnc7ccccc7c6)cc5c43)cc2C(F)(F)F)CC1 = Yes
• CN(C)C/C=C/C(=O)Nc1cccc(Nc2ncc3c(n2)N(C)c2ccccc2C(=O)N3C)c1 = Yes
• O=C(NC1CC1)c1cccc(-c2ccc3c(NC(=O)C4CC4)n[nH]c3c2)c1 = No

With those in mind, consider the next compound.
Please indicate whether the reported kinase still bound, per cent of control of C=CC(=O)Nc1cccc(Oc2nc(Nc3ccc(N4CCN(C)CC4)cc3OC)ncc2Cl)c1 is strictly below 50%.
Yes

---

# System Tested: UniProtKB P07332
# Sequence (P07332 whole entry, looked up): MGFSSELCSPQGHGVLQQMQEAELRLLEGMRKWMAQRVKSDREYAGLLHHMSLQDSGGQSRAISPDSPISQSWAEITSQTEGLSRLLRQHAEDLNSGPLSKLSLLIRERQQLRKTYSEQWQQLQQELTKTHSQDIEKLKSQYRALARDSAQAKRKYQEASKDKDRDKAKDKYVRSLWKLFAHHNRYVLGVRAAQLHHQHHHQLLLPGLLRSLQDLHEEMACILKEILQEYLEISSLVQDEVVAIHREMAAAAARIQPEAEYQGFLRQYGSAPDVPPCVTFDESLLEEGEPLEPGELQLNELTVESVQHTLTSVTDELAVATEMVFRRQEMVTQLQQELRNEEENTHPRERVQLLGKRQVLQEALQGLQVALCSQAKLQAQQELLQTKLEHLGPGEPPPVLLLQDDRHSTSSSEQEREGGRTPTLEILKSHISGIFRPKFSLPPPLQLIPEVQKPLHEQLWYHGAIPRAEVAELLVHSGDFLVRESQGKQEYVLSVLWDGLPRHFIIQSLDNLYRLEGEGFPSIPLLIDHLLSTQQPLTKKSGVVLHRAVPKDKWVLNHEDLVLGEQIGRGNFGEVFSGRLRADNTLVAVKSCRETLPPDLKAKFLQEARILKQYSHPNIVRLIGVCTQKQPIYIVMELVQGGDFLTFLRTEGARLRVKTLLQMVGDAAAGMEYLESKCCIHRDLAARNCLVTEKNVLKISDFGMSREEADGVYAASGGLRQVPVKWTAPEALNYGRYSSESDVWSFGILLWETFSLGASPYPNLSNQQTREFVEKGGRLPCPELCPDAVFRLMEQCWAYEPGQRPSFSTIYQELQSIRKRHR
# Run Description: KINOMEscan competition binding
# Recorded Conditions: compound 10.0 µM
Consider the following molecules and their measured kinase still bound, per cent of control readings.
The response must be a number in % with no trailing unit.

Examples from the recorded data:
* CCC(=O)N1CCN(c2ccc(-n3c(=O)ccc4cnc5ccc(-c6cnc7ccccc7c6)cc5c43)cc2C(F)(F)F)CC1 | 41
* Nc1ccc(-c2ccc3ncc4ccc(=O)n(-c5cccc(C(F)(F)F)c5)c4c3c2)cn1 | 100
* C[C@@H](Oc1cc(-n2cnc3ccc(CN4CCN(C)CC4)cc32)sc1C(N)=O)c1ccccc1C(F)(F)F | 88
* Cc1ccc2nc(NCCN)c3ncc(C)n3c2c1 | 100
* Cc1ccc(NC(=O)c2cccc(C(C)(C)C#N)c2)cc1Nc1ccc2ncn(C)c(=O)c2c1 | 43
* C=CC(=O)Nc1cccc(Nc2nc(N[C@H]3CC[C@H](N(C)C)CC3)nc3c2ncn3C(C)C)c1 | 85
* C=CC(=O)Nc1cc(NC(=O)c2ccc(C)c(NC(=O)c3ccno3)c2)cc(C(F)(F)F)c1 | 100
* O=C(NOC[C@H](O)CO)c1ccc(F)c(F)c1Nc1ccc(I)cc1F | 100
* O=C(NC1CC1)c1cccc(-c2ccc3c(NC(=O)C4CC4)n[nH]c3c2)c1 | 100
* Cc1cc([C@@H](C)Nc2ccccc2C(=O)O)c2nc(N3CCOCC3)cc(=O)n2c1 | 94

Bench note: what kinase still bound, per cent of control did O=C(O)c1ccc(Nc2ncc3c(n2)-c2ccc(Cl)cc2C(c2c(F)cccc2F)=NC3)cc1 show?
100

Entry CCN1CCN(Cc2ccc(Nc3ncc4c(n3)N(C)c3ccccc3C(=O)N4C)cc2C(F)(F)F)CC1 : reported kinase still bound, per cent of control = ?
100

Entry N#Cc1c(NC(=O)c2cccc3ccccc23)sc2c1CCCC2 : reported kinase still bound, per cent of control = ?
100

Would you kindly share the measured kinase still bound, per cent of control for COc1cc(C(=O)NC2CCN(C)CC2)ccc1Nc1ncc2c(n1)N(C1CCCC1)CCC(=O)N2C(C)C ?
100

---

# System Tested: MAP3K7 (human)
# Run Description: KINOMEscan competition binding
# Recorded Conditions: compound 10.0 µM
Note to self: use rule met only for kinase still bound, per cent of control readings below 60%; a reading exactly at 60% still gets rule not met.

Previously resolved entries follow.
* O=C(NOC[C@H](O)CO)c1ccc(F)c(F)c1Nc1ccc(I)cc1F | rule not met
* CC[C@@H]1C(=O)N(C)c2cnc(Nc3ccc(C(=O)NC4CCN(C)CC4)cc3OC)nc2N1C1CCCC1 | rule not met
* Cc1ccc(NC(=O)c2cccc(C(C)(C)C#N)c2)cc1Nc1ccc2ncn(C)c(=O)c2c1 | rule met
* O=C(NC1CC1)c1cccc(-c2ccc3c(NC(=O)C4CC4)n[nH]c3c2)c1 | rule met
* Nc1ccc(-c2ccc3ncc4ccc(=O)n(-c5cccc(C(F)(F)F)c5)c4c3c2)cn1 | rule met

Hi there! Is kinase still bound, per cent of control for O=C(O)c1ccc(Nc2ncc3c(n2)-c2ccc(Cl)cc2C(c2c(F)cccc2F)=NC3)cc1 below 60%, do you know?
rule not met

Please let me know if Cc1cc([C@@H](C)Nc2ccccc2C(=O)O)c2nc(N3CCOCC3)cc(=O)n2c1 shows kinase still bound, per cent of control below 60%.
rule not met

Quick check: kinase still bound, per cent of control of Cn1c(=O)n(-c2ccc(C(C)(C)C#N)cc2)c2c3cc(-c4cnc5ccccc5c4)ccc3ncc21 under 60%?
rule not met

Please let me know if C=CC(=O)Nc1cccc(Nc2nc(N[C@H]3CC[C@H](N(C)C)CC3)nc3c2ncn3C(C)C)c1 shows kinase still bound, per cent of control below 60%.
rule met

Determine whether this molecule shows kinase still bound, per cent of control lower than 60% (ties excluded): C[C@@H](Oc1cc(-n2cnc3ccc(CN4CCN(C)CC4)cc32)sc1C(N)=O)c1ccccc1C(F)(F)F
rule met

Lab note: confirm whether the reported kinase still bound, per cent of control for this molecule is below 60%, equality not counting. molecule: CCOc1cc2ncc(C#N)c(Nc3ccc(OCc4ccccn4)c(Cl)c3)c2cc1NC(=O)/C=C/CN(C)C
rule not met

Given the entry CCN1CCN(Cc2ccc(Nc3ncc4c(n3)N(C)c3ccccc3C(=O)N4C)cc2C(F)(F)F)CC1 , would its reported kinase still bound, per cent of control be below 60%?
rule met

Lab log: compare recorded kinase still bound, per cent of control with 60%; is it strictly lower for COc1cc(C(=O)NC2CCN(C)CC2)ccc1Nc1ncc2c(n1)N(C1CCCC1)CCC(=O)N2C(C)C ?
rule not met

Is it true that kinase still bound, per cent of control reported for CCC(=O)N1CCN(c2ccc(-n3c(=O)ccc4cnc5ccc(-c6cnc7ccccc7c6)cc5c43)cc2C(F)(F)F)CC1 is less than 60%?
rule met

Item CCCS(=O)(=O)Nc1ccc(F)c(C(=O)c2c[nH]c3ncc(-c4ccc(Cl)cc4)cc23)c1F : kinase still bound, per cent of control beneath 60%, strictly?
rule not met
